# Tested on: green rice leafhopper (Nephotettix cincticeps)
# assay details: Test Example 2: mortality of female adults of green rice leafhopper on paddy rice, three days
# Type: in vivo
# experimental conditions: 72 h, 400 ppm active ingredient, 3 days
measurement kind: mortality at 400 ppm (%)
API: value field is a number in %; no unit string.

Enter reported mortality at 400 ppm observed with green rice leafhopper (Nephotettix cincticeps) for `CCOC(=O)CCN(SN(C)C(=O)ON=C(C)SC)c1ccc(Cl)cc1`
100

Enter reported mortality at 400 ppm observed with green rice leafhopper (Nephotettix cincticeps) for `CCOC(=O)CN(SN(C)C(=O)ON=C(C)SC)C(=O)CC`
100

Enter reported mortality at 400 ppm observed with green rice leafhopper (Nephotettix cincticeps) for `CCOC(=O)CCN(CC(C)C)SN(C)C(=O)ON=C(C)SC`
90

Enter reported mortality at 400 ppm observed with green rice leafhopper (Nephotettix cincticeps) for `CCCCCCCCN(CCC(=O)OCC)SN(C)C(=O)ON=C(C)SC`
90

Enter reported mortality at 400 ppm observed with green rice leafhopper (Nephotettix cincticeps) for `CCCCOC(=O)CCN(SN(C)C(=O)ON=C(C)SC)C(C)C`
100

Enter reported mortality at 400 ppm observed with green rice leafhopper (Nephotettix cincticeps) for `CCOC(=O)CCN(CCC(=O)OCC)SN(C)C(=O)ON=C(C)SC`
95

Enter reported mortality at 400 ppm observed with green rice leafhopper (Nephotettix cincticeps) for CNC(=O)ON=C(C)SC [Control*, reference compound]
100

Enter reported mortality at 400 ppm observed with green rice leafhopper (Nephotettix cincticeps) for `CCOC(=O)CCN(SN(C)C(=O)ON=C(C)SC)C1CCCCC1`
100

Enter reported mortality at 400 ppm observed with green rice leafhopper (Nephotettix cincticeps) for `CCOC(=O)CCN(SN(C)C(=O)ON=C(C)SC)C(C)C`
80

Enter reported mortality at 400 ppm observed with green rice leafhopper (Nephotettix cincticeps) for `CCOC(=O)CCN(Cc1ccccc1)SN(C)C(=O)ON=C(C)SC`
100

Enter reported mortality at 400 ppm observed with green rice leafhopper (Nephotettix cincticeps) for `CCOC(=O)CCN(SN(C)C(=O)ON=C(C)SC)c1ccc(OC)cc1`
100
